- Tested on: PC-3 cells
- assay.method.text: XTT cell proliferation (cell viability) assay in PC-3 cells
- Format: cell-based
- experimental.conditions: Homo sapiens, 24 hr treatment, mean±S.E.M., read-out: IC50 (anti-proliferative activity, XTT)
property.measured: IC50

line.notation	property.measured	reported.value
Cc1ccc(C(C)C)cc1O	IC50	2250 µM

---

- Tested on: LNCaP cells
- assay.method.text: XTT cell proliferation (cell viability) assay in LNCaP cells
- Assay type: cell-based
- experimental.conditions: Homo sapiens, 96 hours treatment, mean±S.E.M., read-out: IC50 (anti-proliferative activity, XTT)
pIC50: −log10 of the molar value.
property.measured: pIC50

compound	reported.value
Cc1ccc(C(C)C)cc1O [Carvacrol]	4.86

FYI, the data here is from patent US20140100290A1.
